Biological target: T1, purified αvβ3 integrin (human, UniProt P06756 31-1048; P05106 27-788, limits assumed)
T1 construct: Bought purified integrin, coated on plates at 5 µg/ml; also called immobilized human αvβ3 integrin; CD51/CD61
T1 sequence (P06756 31-1048 limits assumed, form in doubt, chain 1 of 2): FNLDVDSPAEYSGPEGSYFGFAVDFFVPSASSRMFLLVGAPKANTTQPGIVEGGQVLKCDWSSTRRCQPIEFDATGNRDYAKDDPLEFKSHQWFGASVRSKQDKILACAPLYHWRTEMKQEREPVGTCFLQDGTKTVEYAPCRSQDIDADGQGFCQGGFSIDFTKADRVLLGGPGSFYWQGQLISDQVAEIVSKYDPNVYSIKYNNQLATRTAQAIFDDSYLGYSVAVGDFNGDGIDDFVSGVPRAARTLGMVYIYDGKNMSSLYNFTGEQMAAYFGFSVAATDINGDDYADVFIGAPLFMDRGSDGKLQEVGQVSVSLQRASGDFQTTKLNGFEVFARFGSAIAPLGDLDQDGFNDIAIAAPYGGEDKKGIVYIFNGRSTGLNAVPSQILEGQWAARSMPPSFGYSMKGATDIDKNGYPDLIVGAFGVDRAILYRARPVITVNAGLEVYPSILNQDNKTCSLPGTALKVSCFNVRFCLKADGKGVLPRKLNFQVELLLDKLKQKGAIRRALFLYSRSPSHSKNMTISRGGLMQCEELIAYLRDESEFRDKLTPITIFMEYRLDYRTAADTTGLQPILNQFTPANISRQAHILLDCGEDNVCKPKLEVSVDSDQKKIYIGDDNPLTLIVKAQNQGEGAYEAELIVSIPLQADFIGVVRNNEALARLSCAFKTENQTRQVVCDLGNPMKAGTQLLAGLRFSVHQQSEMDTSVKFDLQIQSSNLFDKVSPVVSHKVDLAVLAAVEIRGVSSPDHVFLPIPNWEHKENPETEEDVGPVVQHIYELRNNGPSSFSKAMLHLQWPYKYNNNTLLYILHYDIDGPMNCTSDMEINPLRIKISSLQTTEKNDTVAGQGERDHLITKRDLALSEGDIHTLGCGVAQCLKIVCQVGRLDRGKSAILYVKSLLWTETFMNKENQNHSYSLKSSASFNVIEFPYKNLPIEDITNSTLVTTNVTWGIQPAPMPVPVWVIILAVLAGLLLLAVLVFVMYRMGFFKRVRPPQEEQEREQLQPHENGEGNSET
T1 sequence (P05106 27-788 limits assumed, form in doubt, chain 2 of 2): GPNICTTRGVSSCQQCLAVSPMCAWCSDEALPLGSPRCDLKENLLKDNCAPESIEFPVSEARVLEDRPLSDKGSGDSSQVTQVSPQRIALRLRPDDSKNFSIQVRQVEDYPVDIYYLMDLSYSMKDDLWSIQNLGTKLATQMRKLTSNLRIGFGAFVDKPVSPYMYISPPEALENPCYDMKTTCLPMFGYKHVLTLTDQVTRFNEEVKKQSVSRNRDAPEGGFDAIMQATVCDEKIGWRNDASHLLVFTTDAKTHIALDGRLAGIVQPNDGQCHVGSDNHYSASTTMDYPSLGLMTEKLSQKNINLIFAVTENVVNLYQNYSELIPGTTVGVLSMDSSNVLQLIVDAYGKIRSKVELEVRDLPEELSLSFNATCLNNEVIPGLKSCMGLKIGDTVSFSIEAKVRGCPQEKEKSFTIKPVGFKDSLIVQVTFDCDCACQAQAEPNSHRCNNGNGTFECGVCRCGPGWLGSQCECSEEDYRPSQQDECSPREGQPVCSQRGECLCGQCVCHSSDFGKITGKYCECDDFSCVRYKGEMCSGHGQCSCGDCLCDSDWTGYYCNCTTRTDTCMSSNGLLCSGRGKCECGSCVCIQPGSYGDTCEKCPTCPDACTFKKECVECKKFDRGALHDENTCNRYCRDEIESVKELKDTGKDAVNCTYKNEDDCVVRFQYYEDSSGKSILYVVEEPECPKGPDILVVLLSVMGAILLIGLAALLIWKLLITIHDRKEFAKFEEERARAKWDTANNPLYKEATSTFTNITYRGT
Assay: competition ELISA on αvβ3 coated wells; competitor: biotinylated FNfn10-3JCLI4 at 800 pM; no inhibition at the highest concentration
measurement_label: IC50

// fetch IC50 given entry GRGDSPK [GRGDSPK peptide]
> 80 nM
